Type: in vivo, rat
Test Context: rat, plasma, iv, 10 mg/kg, CL, intravenous 10 mg/kg, CON rats
Measurement Name: clearance (L/h/kg)

1) C[C@@H]1CCN(C(=O)CC#N)C[C@@H]1N(C)c1ncnc2[nH]ccc12 [tofacitinib, Tofacitinib] | 2.23

====

Assay type: in vivo, rat
Test Context: rat, plasma, iv, 10 mg/kg
Measurement Name: half-life (min)

1. C[C@@H]1CCN(C(=O)CC#N)C[C@@H]1N(C)c1ncnc2[nH]ccc12 [tofacitinib, Tofacitinib] | 31

====

Type: in vivo, rat
Test Context: rat, plasma, iv, 10 mg/kg, AUC, intravenous 10 mg/kg, DSS rats (n=6)
Measurement Name: AUC (ng·h/mL)

1. C[C@@H]1CCN(C(=O)CC#N)C[C@@H]1N(C)c1ncnc2[nH]ccc12 | 8680

====

Test Name: in vivo
Test Context: rat, plasma, po, 20 mg/kg, CLR, CON rats
Measurement Name: CL renal (mL/min/kg)

1. C[C@@H]1CCN(C(=O)CC#N)C[C@@H]1N(C)c1ncnc2[nH]ccc12 | 5.47

====

Assay type: in vivo, rat
Test Context: rat, plasma, iv, 10 mg/kg, AUC, intravenous 10 mg/kg, CON rats (n=7)
Measurement Name: AUC (ng·h/mL)

1. C[C@@H]1CCN(C(=O)CC#N)C[C@@H]1N(C)c1ncnc2[nH]ccc12 | 4520

====

Test Name: in vivo
Test Context: rat, plasma, po, 20 mg/kg, CLR, DSS rats
Measurement Name: CL renal (mL/min/kg)

1) C[C@@H]1CCN(C(=O)CC#N)C[C@@H]1N(C)c1ncnc2[nH]ccc12 | 1.97

====

Test Name: in vivo
Test Context: rat, plasma, po, 20 mg/kg, Tmax, CON rats
Measurement Name: Tmax (min)

1. C[C@@H]1CCN(C(=O)CC#N)C[C@@H]1N(C)c1ncnc2[nH]ccc12 | 19.2

====

Test Name: in vivo
Test Context: rat, plasma, po, 20 mg/kg, AUC, DSS rats (n=6)
Measurement Name: AUC (ng·h/mL)

1. C[C@@H]1CCN(C(=O)CC#N)C[C@@H]1N(C)c1ncnc2[nH]ccc12 [tofacitinib, Tofacitinib] | 4920

====

Test Name: Rat plasma protein binding of tofacitinib by equilibrium dialysis
Format: in vitro ADME
Test Context: fresh plasma from CON rats, pH 7.4
Measurement Name: fraction unbound at 24 h, 10 μg/mL

1. C[C@@H]1CCN(C(=O)CC#N)C[C@@H]1N(C)c1ncnc2[nH]ccc12 | 0.606

====

Type: in vivo, rat
Test Context: rat, plasma, iv, 10 mg/kg, CLR, intravenous 10 mg/kg, DSS rats
Measurement Name: CL renal

1. C[C@@H]1CCN(C(=O)CC#N)C[C@@H]1N(C)c1ncnc2[nH]ccc12 | 0.688 mL/min/kg

====

Type: in vivo, rat
Test Context: rat, plasma, iv, 10 mg/kg, MRT, intravenous 10 mg/kg, DSS rats
Measurement Name: MRT (min)

1. C[C@@H]1CCN(C(=O)CC#N)C[C@@H]1N(C)c1ncnc2[nH]ccc12 | 31.9

====

Format: in vivo, rat
Test Context: rat, plasma, iv, 10 mg/kg, MRT, intravenous 10 mg/kg, CON rats
Measurement Name: MRT

1. C[C@@H]1CCN(C(=O)CC#N)C[C@@H]1N(C)c1ncnc2[nH]ccc12 [tofacitinib, Tofacitinib] | 20.3 min

====

Test Name: in vitro
Test Context: rat, intestinal microsomes, pH 7.4, CLint, CON rats
Measurement Name: microsomal CLint (µL/min/mg)

1) C[C@@H]1CCN(C(=O)CC#N)C[C@@H]1N(C)c1ncnc2[nH]ccc12 [tofacitinib, Tofacitinib] | 5.81

====

Test Name: in vitro
Test Context: rat, intestinal microsomes, pH 7.4, CLint, DSS rats
Measurement Name: microsomal CLint (µL/min/mg)

1. C[C@@H]1CCN(C(=O)CC#N)C[C@@H]1N(C)c1ncnc2[nH]ccc12 [tofacitinib, Tofacitinib] | 3.54

====

Format: in vivo, rat
Test Context: rat, plasma, iv, 10 mg/kg, Vss, intravenous 10 mg/kg, DSS rats
Measurement Name: Vd (L/kg)

1. C[C@@H]1CCN(C(=O)CC#N)C[C@@H]1N(C)c1ncnc2[nH]ccc12 | 0.436

====

Test Name: in vivo
Test Context: rat, plasma, po, 20 mg/kg, Tmax, DSS rats
Measurement Name: Tmax (min)

1. C[C@@H]1CCN(C(=O)CC#N)C[C@@H]1N(C)c1ncnc2[nH]ccc12 | 25

====

Test Name: in vivo
Test Context: rat, plasma, po, 20 mg/kg, Cmax, CON rats
Measurement Name: Cmax (ng/mL)

1. C[C@@H]1CCN(C(=O)CC#N)C[C@@H]1N(C)c1ncnc2[nH]ccc12 | 2360
